- tested-system: murine IL-21R expressed on cells (murine, UniProt Q9JHX3 20-529)
- Sequence (Q9JHX3 20-529 limits assumed): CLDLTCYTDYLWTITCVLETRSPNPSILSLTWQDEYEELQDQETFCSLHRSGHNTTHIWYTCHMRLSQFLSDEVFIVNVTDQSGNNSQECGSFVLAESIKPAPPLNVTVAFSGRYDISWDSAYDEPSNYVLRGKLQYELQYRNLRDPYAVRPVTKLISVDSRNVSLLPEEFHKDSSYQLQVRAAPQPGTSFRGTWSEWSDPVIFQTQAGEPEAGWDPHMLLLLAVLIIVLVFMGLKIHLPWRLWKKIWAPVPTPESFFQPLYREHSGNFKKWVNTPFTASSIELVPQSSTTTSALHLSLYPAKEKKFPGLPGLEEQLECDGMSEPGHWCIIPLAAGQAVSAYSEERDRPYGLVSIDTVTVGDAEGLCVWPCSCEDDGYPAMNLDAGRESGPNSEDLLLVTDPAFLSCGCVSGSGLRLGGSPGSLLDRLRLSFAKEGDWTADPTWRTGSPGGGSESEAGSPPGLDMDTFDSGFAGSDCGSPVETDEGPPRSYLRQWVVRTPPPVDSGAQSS
- test-summary: cell-based or functional assay
measurement-type: Murine IL-21R-BaF3 Proliferation IC50

The measured Murine IL-21R-BaF3 Proliferation IC50 associated with AbC (antibody, human IgG1, V domains shown, Full-length human IgG1 / human lambda, transient, conditioned medium; Framework limits derived; also called VHP/VL11) VH: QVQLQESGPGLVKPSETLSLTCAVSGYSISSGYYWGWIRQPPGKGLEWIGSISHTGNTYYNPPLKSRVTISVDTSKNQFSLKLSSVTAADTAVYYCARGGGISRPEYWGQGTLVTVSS VL: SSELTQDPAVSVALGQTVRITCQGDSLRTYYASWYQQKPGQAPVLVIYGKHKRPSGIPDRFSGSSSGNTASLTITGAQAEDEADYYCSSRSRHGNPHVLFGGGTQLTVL reads 0.03 nM

The measured Murine IL-21R-BaF3 Proliferation IC50 associated with AbP (antibody, human IgG1, V domains shown, Human IgG1 triple-mutant (L234A, L235A, G237A); Framework limits derived; also called VHP/VL20; VHPTM/VL20) VH: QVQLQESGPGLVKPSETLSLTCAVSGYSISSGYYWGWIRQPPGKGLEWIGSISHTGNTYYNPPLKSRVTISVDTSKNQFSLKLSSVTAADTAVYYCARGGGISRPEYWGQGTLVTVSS VL: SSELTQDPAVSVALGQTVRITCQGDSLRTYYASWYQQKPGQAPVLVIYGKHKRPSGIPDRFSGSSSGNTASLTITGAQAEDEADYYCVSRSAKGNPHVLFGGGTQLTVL reads 0.03 nM
